Attribution: ChEMBL document CHEMBL4308836

- test-system: Isocitrate dehydrogenase [NADP], mitochondrial (Homo sapiens, UniProt P48735, R140Q)
- Sequence (P48735 40-452 R140Q limits assumed): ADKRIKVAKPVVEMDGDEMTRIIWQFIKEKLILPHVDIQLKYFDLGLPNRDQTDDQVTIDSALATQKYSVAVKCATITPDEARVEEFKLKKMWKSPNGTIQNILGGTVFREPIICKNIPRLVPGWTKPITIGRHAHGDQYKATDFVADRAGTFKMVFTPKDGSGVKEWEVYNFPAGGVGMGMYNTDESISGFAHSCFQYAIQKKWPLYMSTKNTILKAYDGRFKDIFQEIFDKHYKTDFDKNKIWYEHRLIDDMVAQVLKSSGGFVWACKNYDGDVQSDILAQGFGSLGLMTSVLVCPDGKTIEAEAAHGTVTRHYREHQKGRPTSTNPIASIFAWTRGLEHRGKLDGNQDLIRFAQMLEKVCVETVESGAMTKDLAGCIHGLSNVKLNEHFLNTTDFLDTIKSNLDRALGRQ
- protocol: Inhibition of N-terminal His-tagged IDH2 R140Q mutant (unknown origin) expressed in Escherichia coli using alpha-KG as substrate assessed as decrease in D-2-HG production after 90 mins by quadrupole mass spectrometry

{"smiles-input": "C=CC(=O)N1CCN(Cc2ccc([C@@H](C)Nc3ncc4c(n3)N(C(C)C)C(=O)OC4)cc2)CC1", "uom": "µM", "IC50": 41.8}

----------
- test-system: Isocitrate dehydrogenase [NADP] cytoplasmic (Homo sapiens, UniProt O75874, R132H)
- Sequence (O75874 2-414 R132H limits assumed): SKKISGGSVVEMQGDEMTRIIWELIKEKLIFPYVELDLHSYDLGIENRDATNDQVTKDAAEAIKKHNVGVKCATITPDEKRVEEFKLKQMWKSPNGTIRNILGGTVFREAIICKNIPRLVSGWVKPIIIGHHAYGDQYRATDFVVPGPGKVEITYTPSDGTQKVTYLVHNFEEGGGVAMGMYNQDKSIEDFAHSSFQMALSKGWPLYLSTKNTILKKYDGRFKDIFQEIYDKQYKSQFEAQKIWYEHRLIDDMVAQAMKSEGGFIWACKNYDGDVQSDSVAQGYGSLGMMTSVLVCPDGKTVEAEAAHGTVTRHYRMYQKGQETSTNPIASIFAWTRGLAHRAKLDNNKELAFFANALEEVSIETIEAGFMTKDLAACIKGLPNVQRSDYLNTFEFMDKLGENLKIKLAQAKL
- protocol: Inhibition of IDH1 R132H mutant (unknown origin) expressed in HEK293 cells assessed as decrease in D-2-HG production
- Format: cell-based

{"smiles-input": "CC(C)(C)C(C)(C)c1cc(Cn2ccnc2)c(O)c(Cn2ccnc2)c1", "IC50": "0.0815 µM"}

----------
- test-system: Isocitrate dehydrogenase [NADP] cytoplasmic (Homo sapiens, UniProt O75874, R132C)
- Sequence (O75874 2-414 R132C limits assumed): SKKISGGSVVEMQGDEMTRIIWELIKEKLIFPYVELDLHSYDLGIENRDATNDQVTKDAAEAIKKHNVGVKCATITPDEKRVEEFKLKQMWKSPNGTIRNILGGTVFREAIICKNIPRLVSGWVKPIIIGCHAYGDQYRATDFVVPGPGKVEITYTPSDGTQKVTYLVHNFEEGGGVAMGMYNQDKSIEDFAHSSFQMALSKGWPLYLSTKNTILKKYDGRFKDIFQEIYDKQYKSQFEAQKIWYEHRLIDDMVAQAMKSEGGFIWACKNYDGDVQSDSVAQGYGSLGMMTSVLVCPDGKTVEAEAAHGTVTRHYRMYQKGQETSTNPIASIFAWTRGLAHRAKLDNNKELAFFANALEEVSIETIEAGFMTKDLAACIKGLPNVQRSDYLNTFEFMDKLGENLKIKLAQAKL
- protocol: Inhibition of IDH1 R132C mutant (unknown origin) using alpha-KG after 105 mins by NADPH depletion assay
pIC50: −log10 of the molar value.
value-type: pIC50

{"smiles-input": "CCOc1ccc(Cl)cc1-n1c(C=C(C)C)c(C(=O)N2CCN[C@H](C)C2)cc(-c2nc(-c3ccc(C(F)(F)F)cc3)cs2)c1=O", "data-value": "> 6.52"}
{"smiles-input": "CCOc1ccc(N(CC)CC)cc1-n1c(C=C(C)C)c(C(=O)N2CCN[C@H](C)C2)cc(-c2nc(-c3ccc(Cl)cc3)cs2)c1=O", "data-value": "> 6.52"}
{"smiles-input": "CCc1ccc(Cl)cc1-n1c(C=C(C)C)c(C(=O)N2CCNCC2)cc(-c2nc(-c3ccc(Cl)cc3)cs2)c1=O", "data-value": "> 6.52"}

----------
- test-system: Isocitrate dehydrogenase [NADP], mitochondrial (Homo sapiens, UniProt P48735, R140Q)
- protocol: Inhibition of IDH2 R140Q mutant (unknown origin) by NADPH depletion assay
pIC50: −log10 of the molar value.

{"smiles-input": "CC(C)Nc1cc(Nc2cc(C(F)(F)F)ccn2)nc(-c2ccccc2)c1", "pIC50": 7.26}

----------
- test-system: Isocitrate dehydrogenase [NADP], mitochondrial (Homo sapiens, UniProt P48735, R172K)
- Sequence (P48735 40-452 R172K limits assumed): as the sequence (P48735 40-452 R140Q limits assumed) above, with Q101R, R133K counted along it
- protocol: Inhibition of IDH2 R172K mutant (unknown origin) by NADPH depletion assay

{"smiles-input": "Cc1ccc(Cl)cc1NC(=O)Nc1cc(NC(=O)c2ccccc2)ccc1N1CCCC1", "IC50": "100 nM"}

----------
// values below are reported pIC50
- test-system: Isocitrate dehydrogenase [NADP] cytoplasmic (Homo sapiens, UniProt O75874, R132H)
- protocol: Inhibition of N-terminal His-tagged IDH1 R132H mutant (unknown origin) expressed in Escherichia coli using alpha-KG as substrate assessed as decrease in D-2-HG production after 90 mins by quadrupole mass spectrometry
pIC50: −log10 of the molar value.

{"smiles-input": "C=CC(=O)N1CC2(CN(Cc3ccc([C@@H](C)Nc4ncc5c(n4)N(C(C)C)C(=O)OC5)cc3)C2)C1", "pIC50": "> 7.00"}
{"smiles-input": "C=CC(=O)N1CC(OCc2ccc([C@H](C)Nc3ncc4c(n3)N(CC(C)C)C(=O)OC4)cc2)C1", "pIC50": "> 7.00"}
{"smiles-input": "C=CC(=O)N1CCN(Cc2ccc([C@@H](C)Nc3ncc4c(n3)N(C(C)C)C(=O)OC4)cc2)CC1", "pIC50": 7.54}
{"smiles-input": "C=CC(=O)N1CCN(Cc2ccc([C@H](C)Nc3ncc4c(n3)N(CC(C)C)C(=O)OC4)cc2)CC1", "pIC50": "> 7.00"}
{"smiles-input": "C=CC(=O)N1CC(CCc2ccc([C@H](C)Nc3ncc4c(n3)N(CC)C(=O)OC4)cc2)C1", "pIC50": "> 7.00"}
{"smiles-input": "C=CC(=O)N1CC(COc2ccc([C@H](C)Nc3ncc4c(n3)N(C(C)C)C(=O)OC4)cc2)C1", "pIC50": "> 7.00"}
